For each entry below, report its EC50 value.
# target_entity: Nuclear receptor subfamily 1 group I member 2 (Homo sapiens)
# Sequence (O75469 whole entry): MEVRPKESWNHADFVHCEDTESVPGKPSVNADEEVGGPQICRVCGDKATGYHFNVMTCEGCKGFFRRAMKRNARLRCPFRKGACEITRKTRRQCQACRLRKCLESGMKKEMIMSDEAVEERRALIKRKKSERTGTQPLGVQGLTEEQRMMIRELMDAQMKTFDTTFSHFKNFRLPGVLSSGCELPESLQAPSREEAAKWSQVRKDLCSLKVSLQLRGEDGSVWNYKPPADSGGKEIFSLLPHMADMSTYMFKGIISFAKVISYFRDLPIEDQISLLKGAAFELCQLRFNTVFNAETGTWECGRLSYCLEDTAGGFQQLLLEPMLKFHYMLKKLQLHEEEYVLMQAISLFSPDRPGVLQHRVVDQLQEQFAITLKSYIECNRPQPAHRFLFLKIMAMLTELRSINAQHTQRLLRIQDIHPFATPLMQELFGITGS
# measurement_notes: Agonist activity at PXR-LBD expressed in HEK293 cells assessed as Gal4-DBD interaction by cellular mammalian one hybrid assay
I only need the number, in nM, no unit after it.

Reported EC50 (Nuclear receptor subfamily 1 group I member 2 (Homo sapiens)) for entry CN(Cc1ccc(C(=O)O)cc1)c1ccc(OCc2c(-c3c(Cl)cccc3Cl)noc2C2CC2)nc1C(F)(F)F is 3870

EC50 of CN(Cc1cccc(C(=O)O)c1)c1ccc(OCc2c(-c3c(Cl)cccc3Cl)noc2C2CC2)nc1C(F)(F)F , assay on Nuclear receptor subfamily 1 group I member 2 (Homo sapiens), is 390
